targetOrSystem: Acetylcholine receptor subunit alpha (Homo sapiens, UniProt P02708)
Sequence (P02708 whole entry): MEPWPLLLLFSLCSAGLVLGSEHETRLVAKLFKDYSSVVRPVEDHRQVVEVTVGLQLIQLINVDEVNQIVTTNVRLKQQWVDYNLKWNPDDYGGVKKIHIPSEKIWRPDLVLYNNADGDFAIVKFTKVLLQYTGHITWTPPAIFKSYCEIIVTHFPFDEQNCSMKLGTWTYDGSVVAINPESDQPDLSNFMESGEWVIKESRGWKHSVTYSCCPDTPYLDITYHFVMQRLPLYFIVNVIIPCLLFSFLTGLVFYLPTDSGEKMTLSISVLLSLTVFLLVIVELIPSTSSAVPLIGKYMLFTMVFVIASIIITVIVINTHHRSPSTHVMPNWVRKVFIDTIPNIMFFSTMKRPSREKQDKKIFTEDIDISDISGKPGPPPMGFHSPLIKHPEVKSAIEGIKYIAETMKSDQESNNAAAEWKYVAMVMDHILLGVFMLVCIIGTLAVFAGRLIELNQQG
experiment: Binding affinity to alpha1 nAchR expressed in human TE671 cells
pIC50: −log10 of the molar value.
molecules and their reported pIC50
propertyLabel: pIC50

[[record]]
molecule = "CC(C)c1cc(C2=CCC[C@@H]3CC[C@H]2N3)on1 (racemic)"
propertylabel = "pIC50"
testvalue = 5.26

[[record]]
molecule = "C1=C(c2cc(-c3ccccc3)no2)[C@H]2CC[C@@H](CC1)N2 (racemic)"
propertylabel = "pIC50"
testvalue = 5.11

[[record]]
molecule = "CCc1cc(C2=CCC[C@@H]3CC[C@H]2N3)on1 (racemic)"
propertylabel = "pIC50"
testvalue = 5.38

[[record]]
molecule = "CCOC(=O)c1noc2c1[C@H]1CC[C@@H](CC2)N1 (racemic)"
propertylabel = "pIC50"
testvalue = "< 5.00"

[[record]]
molecule = "Cc1noc2c1[C@H]1CC[C@@H](CC2)N1 (racemic)"
propertylabel = "pIC50"
testvalue = "< 5.00"

[[record]]
molecule = "Cc1cc([C@]2(O)CCC[C@@H]3CC[C@H]2N3)on1 (racemic)"
propertylabel = "pIC50"
testvalue = "< 5.00"

[[record]]
molecule = "CCOC(=O)c1cc(C2=CCC[C@@H]3CC[C@H]2N3)on1 (racemic)"
propertylabel = "pIC50"
testvalue = "< 5.00"

[[record]]
molecule = "Cc1cc([C@@]2(O)CCC[C@@H]3CC[C@H]2N3)on1 (racemic)"
propertylabel = "pIC50"
testvalue = "< 5.00"


====

targetOrSystem: Neuronal acetylcholine receptor subunit alpha-7 (Homo sapiens)
Sequence (P36544 whole entry): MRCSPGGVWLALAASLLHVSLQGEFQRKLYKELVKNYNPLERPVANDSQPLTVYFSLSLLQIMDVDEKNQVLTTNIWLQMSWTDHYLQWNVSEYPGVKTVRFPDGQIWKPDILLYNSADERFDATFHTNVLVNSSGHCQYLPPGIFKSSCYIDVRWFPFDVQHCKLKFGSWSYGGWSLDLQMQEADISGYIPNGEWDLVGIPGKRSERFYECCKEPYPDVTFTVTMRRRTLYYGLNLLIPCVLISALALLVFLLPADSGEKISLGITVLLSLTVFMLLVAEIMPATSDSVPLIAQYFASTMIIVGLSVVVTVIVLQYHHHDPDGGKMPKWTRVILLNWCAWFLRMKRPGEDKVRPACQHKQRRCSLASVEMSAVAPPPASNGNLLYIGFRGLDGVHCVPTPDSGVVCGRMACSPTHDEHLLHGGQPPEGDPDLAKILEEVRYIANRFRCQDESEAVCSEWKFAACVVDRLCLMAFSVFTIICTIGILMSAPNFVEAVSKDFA
experiment: Displacement of [125I]-alpha-bungarotoxin from alpha7 nAchR expressed in rat GH4C1 cells
Type: cell-based, GH4-C1
Recorded IC50 for the following compounds
propertyLabel: IC50

[[record]]
compound = "Cc1cc([C@]2(O)CCC[C@@H]3CC[C@H]2N3)on1 (racemic)"
testvalue = "> 10 µM"

[[record]]
compound = "Cc1cc(C2=CCC[C@@H]3CC[C@H]2N3)on1 (racemic)"
testvalue = "> 10 µM"

[[record]]
compound = "CC(C)c1cc(C2=CCC[C@@H]3CC[C@H]2N3)on1 (racemic)"
testvalue = "15.1 µM"

[[record]]
compound = "C1=C(c2cc(-c3ccccc3)no2)[C@H]2CC[C@@H](CC1)N2 (racemic)"
testvalue = "> 10 µM"

[[record]]
compound = "CCc1cc(C2=CCC[C@@H]3CC[C@H]2N3)on1 (racemic)"
testvalue = "4.6 µM"

[[record]]
compound = "CCOC(=O)c1cc(C2=CCC[C@@H]3CC[C@H]2N3)on1 (racemic)"
testvalue = "> 10 µM"

[[record]]
compound = "Cc1noc2c1[C@H]1CC[C@@H](CC2)N1 (racemic)"
testvalue = "> 10 µM"

[[record]]
compound = "Cc1cc([C@@]2(O)CCC[C@@H]3CC[C@H]2N3)on1 (racemic)"
testvalue = "> 10 µM"

[[record]]
compound = "CCOC(=O)c1noc2c1[C@H]1CC[C@@H](CC2)N1 (racemic)"
testvalue = "> 10 µM"


====

Documented pIC50 across a set of molecules
targetOrSystem: Neuronal acetylcholine receptor; alpha3/beta4 (Homo sapiens, UniProt P30926+P32297)
Sequence (P30926 whole entry): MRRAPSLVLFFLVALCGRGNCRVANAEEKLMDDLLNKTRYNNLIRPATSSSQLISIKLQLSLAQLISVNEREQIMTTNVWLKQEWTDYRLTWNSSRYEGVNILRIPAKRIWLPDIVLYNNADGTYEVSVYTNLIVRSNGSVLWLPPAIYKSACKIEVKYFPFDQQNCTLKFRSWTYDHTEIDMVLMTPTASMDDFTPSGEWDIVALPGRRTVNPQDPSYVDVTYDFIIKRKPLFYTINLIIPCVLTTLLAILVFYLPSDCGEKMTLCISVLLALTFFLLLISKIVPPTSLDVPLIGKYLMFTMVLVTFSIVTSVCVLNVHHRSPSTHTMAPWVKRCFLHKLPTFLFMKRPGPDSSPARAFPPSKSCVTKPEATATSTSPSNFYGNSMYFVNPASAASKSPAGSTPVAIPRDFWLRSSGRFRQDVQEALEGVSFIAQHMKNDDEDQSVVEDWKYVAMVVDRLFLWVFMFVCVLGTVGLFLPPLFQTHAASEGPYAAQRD
Sequence (P32297 whole entry): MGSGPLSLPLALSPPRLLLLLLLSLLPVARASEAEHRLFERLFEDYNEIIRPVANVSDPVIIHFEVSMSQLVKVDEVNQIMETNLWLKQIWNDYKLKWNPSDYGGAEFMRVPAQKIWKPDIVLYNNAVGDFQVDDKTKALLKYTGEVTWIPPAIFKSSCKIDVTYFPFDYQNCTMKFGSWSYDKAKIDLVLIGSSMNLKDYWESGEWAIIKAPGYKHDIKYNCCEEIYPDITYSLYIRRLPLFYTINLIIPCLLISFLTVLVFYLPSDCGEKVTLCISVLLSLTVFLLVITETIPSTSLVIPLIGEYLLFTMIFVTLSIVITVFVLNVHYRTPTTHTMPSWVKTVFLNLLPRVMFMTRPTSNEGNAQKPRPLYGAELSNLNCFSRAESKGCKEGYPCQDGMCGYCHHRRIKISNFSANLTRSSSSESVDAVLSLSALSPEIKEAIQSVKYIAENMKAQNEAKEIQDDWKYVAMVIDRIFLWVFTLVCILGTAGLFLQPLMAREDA
experiment: Displacement of [3H]-epibatidine from alpha3beta4 nAChR expressed in human IMR32 cells after 2 hrs by scintillation counting
pIC50: −log10 of the molar value.
propertyLabel: pIC50

[[record]]
molecule = "CCOC(=O)c1cc(C2=CCC[C@@H]3CC[C@H]2N3)on1 (racemic)"
testvalue = "< 5.00"

[[record]]
molecule = "CCOC(=O)c1noc2c1[C@H]1CC[C@@H](CC2)N1 (racemic)"
testvalue = "< 5.00"

[[record]]
molecule = "C1=C(c2cc(-c3ccccc3)no2)[C@H]2CC[C@@H](CC1)N2 (racemic)"
testvalue = 5.98

[[record]]
molecule = "Cc1noc2c1[C@H]1CC[C@@H](CC2)N1 (racemic)"
testvalue = "< 5.00"

[[record]]
molecule = "Cc1cc([C@]2(O)CCC[C@@H]3CC[C@H]2N3)on1 (racemic)"
testvalue = "< 5.00"

[[record]]
molecule = "CCc1cc(C2=CCC[C@@H]3CC[C@H]2N3)on1 (racemic)"
testvalue = 5.74

[[record]]
molecule = "Cc1cc(C2=CCC[C@@H]3CC[C@H]2N3)on1 (racemic)"
testvalue = "< 5.00"

[[record]]
molecule = "CC(C)c1cc(C2=CCC[C@@H]3CC[C@H]2N3)on1 (racemic)"
testvalue = 5.54

[[record]]
molecule = "Cc1cc([C@@]2(O)CCC[C@@H]3CC[C@H]2N3)on1 (racemic)"
testvalue = "< 5.00"


Reference source: ChEMBL document CHEMBL1821660
